Cited source for all entries: the supplement of paper PMC13380429

System: U2OS
Assay: cell viability relative to DMSO; higher = less toxic
Settings: 72 h; 10 nM
Structures can show the parent of a compound that is named as a salt.
Kindly state cell viability for each of the entries shown.
Could you give me the number in %? Just the number is fine.

Ask: Reported cell viability for U2OS, given N=C(N)SCc1ccc(B(O)O)cc1 [BC-11] ?
Reply: 102

Ask: Can you look up cell viability on U2OS for CN1[C@@H]2C[C@@H](OC(=O)[C@H](CO)c3ccccc3)C[C@H]1[C@@H]1O[C@@H]12 [SCOPOLAMINE HYDROBROMIDE] ?
Reply: 98.7

Ask: Requested read-out cell viability, target or system U2OS, entry CC/C=C(\C(=O)N[C@@H]1C(=O)N2C(C(=O)OCOC(=O)C(C)(C)C)=C(COC(N)=O)CS[C@H]12)c1csc(N)n1 [cefcapene-pivoxil]
Reply: 106

Ask: Please state recorded cell viability (tested on U2OS) of CCOc1ccc(Cc2nccc3cc(OCC)c(OCC)cc23)cc1OCC [ethaverine]
Reply: 106

Ask: So what cell viability did C[C@H]1NC(=O)NC1=O [5-methylhydantoin-(D)] get with U2OS?
Reply: 100

Ask: Given the entry CCOc1cc(C(=O)N2CCC(N3CCN(C)CC3)CC2)ccc1Nc1ncc2c(n1)N(C1CCCC1)c1ccccc1C(=O)N2C [XMD17-109] , what cell viability was observed with U2OS?
Reply: 95.6

Ask: Quick check: cell viability on U2OS, item Cc1ccccc1-n1c(CF)nc2ccc(N)cc2c1=O [afloqualone] ?
Reply: 97.9

Ask: Look up cell viability with U2OS for this molecule: C[C@@H]1CCO[C@H]2Cn3cc(C(=O)NCc4ccc(F)cc4F)c(=O)c(O)c3C(=O)N12 [dolutegravir]
Reply: 103

Ask: Test system U2OS; read-out cell viability; what value for CN(C)Cc1ccc(S(=O)(=O)n2ccc(/C=C/C(=O)NO)c2)cc1 [resminostat] ?
Reply: 105

Ask: Checklist item: cell viability tested on U2OS, entry COC(=O)C1=C(C)NC(C)=C(C(=O)OCCCN2CCC(c3ccccc3)(c3ccccc3)CC2)[C@@H]1c1cccc([N+](=O)[O-])c1 [dexniguldipine] , value?
Reply: 102

Ask: Report cell viability for CCN(CC)CCCC(C)Nc1nc(C)cc(Nc2ccc3nc(C)cc(N)c3c2)n1 (stereo not drawn) tested on U2OS.
Reply: 97.6

Ask: Find the measured cell viability: item CC(=O)Oc1cc2c(s1)CCN(C(C(=O)C1CC1)c1ccccc1F)C2 (stereo not drawn) [prasugrel] , target or system U2OS.
Reply: 98

Ask: cell viability of CC(=O)NCC(=O)N[C@H](CCC(=O)O)C(=O)O [N-acetylglycyl-D-glutamic-acid] on U2OS?
Reply: 102

Ask: Could you share what cell viability was measured for "Cn1cc(-c2cnn3c(N)c(Br)c([C@@H]4CCCNC4)nc23)cn1" , tested on U2OS?
Reply: 92

Ask: Short answer please: cell viability, U2OS, entry O=C(Nc1ccc([N+](=O)[O-])cc1Cl)c1cc(Cl)ccc1O [niclosamide]
Reply: 104

Ask: cell viability of COc1cc(C(=O)NC2CCCNC2)cc(OC)c1OC (stereo not drawn) [troxipide] on U2OS?
Reply: 96.3

Ask: Item CN(C)CC[C@@H](c1ccc(Cl)cc1)c1ccccn1 [chlorphenamine] with U2OS - cell viability?
Reply: 97.8

Ask: Entry C[C@@H]1CC[C@@]2(OC1)O[C@H]1C[C@H]3[C@@H]4CC=C5C[C@@H](O)CC[C@]5(C)[C@H]4CC[C@]3(C)[C@H]1[C@@H]2C [diosgenin] , system U2OS: what cell viability was measured?
Reply: 99.1

Ask: Lab note: need cell viability for CCCCCCOc1cc2c(cc1N(C)c1ncc(C(=O)O)cn1)C(C)(C)CCC2(C)C [PA-452] on U2OS, anyone have it?
Reply: 92.8

Ask: Form entry - test system: U2OS; read-out: cell viability; molecule: O=C(N[C@@H]1CC[C@@H](c2cccc(F)c2F)CN(CC(F)(F)F)C1=O)N1CCC(n2c(=O)[nH]c3ncccc32)CC1 [telcagepant]
Reply: 99.1

Ask: Give recorded cell viability with U2OS for the following molecule: C/C(=C\c1csc(C)n1)[C@@H]1C[C@@H]2O[C@]2(C)CCC[C@H](C)[C@H](O)[C@@H](C)C(=O)C(C)(C)[C@@H](O)CC(=O)O1 [epothilone-B]
Reply: 39.9

Ask: Item: Cc1cc(C)c(/C=C2\C(=O)Nc3ccccc32)[nH]1 [semaxanib] Test system: U2OS Read-out: cell viability Value: ?
Reply: 96.6

Ask: Item Nc1c(Br)cc(Br)cc1CN[C@H]1CC[C@H](O)CC1 [ambroxol] with U2OS - cell viability?
Reply: 99

Ask: Identify the measured cell viability of CCC(=O)OCC(=O)[C@@]1(OC(=O)CC)[C@@H](C)C[C@H]2[C@@H]3CCC4=CC(=O)C=C[C@]4(C)[C@@]3(F)[C@@H](O)C[C@@]21C [BETAMETHASONE 17,21-DIPROPIONATE] for U2OS.
Reply: 96.8

Ask: Requested read-out cell viability, target or system U2OS, entry CNC1CC(N)C(O)C(OC2OC(CO)C(O)C3OC4(OC(C(N)CO)C(O)C(O)C4O)OC23)C1O (stereo not drawn) [Hygromycin B]
Reply: 97.8

Ask: Param readout = cell viability; param system = U2OS; param query = CC(=O)N[C@@H](Cc1c[nH]c2ccccc12)C(=O)OCc1cc(C(F)(F)F)cc(C(F)(F)F)c1 [L-732,138] ; response: value
Reply: 94.7

Ask: Item: Cc1c(NC(=O)c2cc3c(s2)CCCC3)cccc1-c1cn(C)c(=O)c(Nc2ccc(C3C(=O)N(C)CCN3C)cc2)n1 (stereo in doubt) [GDC-0834] Test system: U2OS Read-out: cell viability Value: ?
Reply: 99.1

Ask: Enter reported cell viability observed with U2OS for "CC(C)(C)CC(=O)Nc1c(F)cc(C(=O)/N=c2\sccn2COP(=O)(O)O)cc1F"
Reply: 101

Ask: Recorded cell viability for CN(C)C[C@H](O)Cn1c2ccc(Br)cc2c2cc(Br)ccc21 (racemic) [wiskostatin] with U2OS, please?
Reply: 98.8

Ask: Lab request: please report cell viability under test system U2OS for "NC(=O)N/N=C/c1ccc(Oc2ccc(F)cc2)cc1"
Reply: 94.5

Ask: Can you look up cell viability on U2OS for CCO[C@H]1O[C@@H]2O[C@@]3(C)CC[C@H]4[C@H](C)CC[C@@H]([C@H]1C)[C@@]24OO3 [artemotil] ?
Reply: 100

Ask: cell viability of Oc1cc2c(cc1O)[C@H]1c3ccccc3CN[C@@H]1CC2 (racemic) [dihydrexidine] on U2OS?
Reply: 93.2

Ask: # returns recorded cell viability (system: U2OS) for O=C(O)CCCC[C@@H]1SC[C@@H]2NC(=O)N[C@@H]21 [biotin]
Reply: 101
